Here the recorded cytotoxicity at 70.5 h is given for each entry.
- Assay overview: Human HepG2 cell viability assay in 384 well format
- Type: toxicity, cell-based
- Design: dose 125 nL, time 70.5 hour; concentration not given beside the values
- Protocol conditions: HepG2 cells, read-out: Inhibition
Give just the numeric value; % need not be written.

Q: Provide cytotoxicity at 70.5 h value for the following compound: `COc1cccc(CNC(=O)c2nc3c(o2)CN(C(=O)N(C)C)C3)c1`
Ans: -8.42

Q: // Input: `O=C(c1cc(C2CC2)on1)N1CCC(Oc2ncccc2Cl)CC1` . Output its cytotoxicity at 70.5 h only.
Ans: -6.96

Q: Let me know recorded cytotoxicity at 70.5 h for `Cc1cc(F)ccc1OC1(C(=O)O)CCN(Cc2ccncc2)CC1` , thanks.
Ans: -8.64

Q: Supply recorded cytotoxicity at 70.5 h for `CCOC(=O)CSc1ccc(-c2nc(C)no2)cn1` here.
Ans: 1.96

Q: For CN1CCOC(C(=O)Nc2nc(-c3ccccc3F)n[nH]2)C1 (centres undefined) , write its cytotoxicity at 70.5 h.
Ans: -6.97

Q: Supply recorded cytotoxicity at 70.5 h for `Fc1cccnc1O[C@@H]1CN(Cc2ccco2)[C@@H]2CCCO[C@@H]21` here.
Ans: -12.4

Q: Give me measured cytotoxicity at 70.5 h, please, for this compound: `Cc1nccc([C@H]2C[C@@H]3CCN(S(=O)(=O)C4CC4)C[C@H]3O2)n1`
Ans: 0.462

Q: Dear colleague, please send me the reported cytotoxicity at 70.5 h for `COc1cccc(CN2CCC(Cc3cnc(CN(C)C)cn3)CC2)c1` when you can.
Ans: 22.5

More entries:
Q: Recall and state the measured cytotoxicity at 70.5 h for `CCn1ccc(CNC(=O)c2cc(OC)cc(OC)c2)n1` .
Ans: -10.5

Q: Quote cytotoxicity at 70.5 h reported for COc1ccc(C2Nc3ccccc3C3=NCCCN32)cc1OC (centres undefined) please.
Ans: 7.54

Value source: ChEMBL document CHEMBL3507680
